target: IMPDH2 (Homo sapiens, UniProt P12268); experiment: spectrophotometric NADH production at […] nm
Sequence (P12268 2-514): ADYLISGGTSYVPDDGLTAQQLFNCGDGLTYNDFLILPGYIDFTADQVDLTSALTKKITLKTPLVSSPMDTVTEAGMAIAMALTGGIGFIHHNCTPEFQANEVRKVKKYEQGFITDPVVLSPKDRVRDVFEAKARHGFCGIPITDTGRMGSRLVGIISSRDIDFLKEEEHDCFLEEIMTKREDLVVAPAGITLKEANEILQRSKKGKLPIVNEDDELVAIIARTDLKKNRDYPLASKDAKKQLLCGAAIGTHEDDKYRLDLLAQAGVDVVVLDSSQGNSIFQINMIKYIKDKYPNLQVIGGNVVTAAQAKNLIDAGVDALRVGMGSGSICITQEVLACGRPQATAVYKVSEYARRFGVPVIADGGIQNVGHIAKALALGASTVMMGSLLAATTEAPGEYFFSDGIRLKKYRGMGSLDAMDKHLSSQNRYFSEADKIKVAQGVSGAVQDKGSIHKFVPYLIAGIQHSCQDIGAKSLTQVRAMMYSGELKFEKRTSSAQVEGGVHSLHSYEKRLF
measure: pIC50
Numbers only, as −log10 of the molar value.

Enter pIC50 (test system IMPDH2 (Homo sapiens, UniProt P12268)) for NC(=O)c1ncn([C@@H]2O[C@H](COP(=O)(O)O)[C@@H](O)[C@H]2O)c1O
7.50

Values were extracted from paper PMC4777262.
